Every entry's value here was drawn from paper PMC8782169.

Target: T1, hTUT4 CCHC-ZnF2 (Homo sapiens, UniProt Q5TAX3 1293-1321)
T1 chain: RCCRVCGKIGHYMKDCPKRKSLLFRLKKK
Assay: NMR titration (15N HSQC CSP); 10 uM ZnCl2; NMR: 10 mM Tris-HCl pH 7.4, 100 mM NaCl, 0.5 mM TCEP, 10 uM ZnCl2, 25 C, 50 uM protein; BLI: streptavidin sensors, 1-8 uM protein, buffer not in material
Settings: protein: recombinant; tags: N-terminal His6 removed by TEV
attribute-measured: Kd (µM)

- binder: "CGGA (ssRNA) [CGGA RNA]"
  attribute-measured: "Kd"
  result: 3.7
